Recorded values, source patent US20110293610A1.

# tested target: T1, TNF-alpha (human, UniProt P01375 77-233)
# T1 construct: also called TNFα; TNF-α
# T1 sequence (P01375 77-233 limits assumed): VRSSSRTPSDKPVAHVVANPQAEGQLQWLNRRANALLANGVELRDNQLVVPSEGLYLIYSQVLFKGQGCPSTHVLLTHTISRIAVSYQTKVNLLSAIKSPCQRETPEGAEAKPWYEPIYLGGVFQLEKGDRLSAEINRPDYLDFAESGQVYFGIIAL
# protocol: phage ELISA
assay metric: binding result

I026C04 (scFv) scFv: QVQLVQSGAEVKKPGSSVKVSCRASGGSFNHAISWVRQAPGRGLEWMGGILPMYGTANYAQKFQGRVTITADKLTNTVYMDLSRLRYEDTAVYYCARELGLSIVGATTGALDMWGKGTLVTVSSGGGGSGGGGSGGGGSAQSVLTQPPSVSAAPGQKVTISCSGSSSNIGNNYVSWYQQIPGTAPKLLIYENNKRPSGIPDRFSGSKSGASATLDITGLQTGDEADYYCGTWHSSQVVFGGGTKLTVLG ... no binding
I031C03 (scFv) scFv: QMQLVQSGAEVRKPGSSVKVSCKASGGSFSSHVFSWVRQAPGQGLEWVGGITPKFATPNYAQKFQHRVTITADELTRTVFMDLSGLRSEDTAVYYCARGYDSSAFRAFDIWGQGTLVTVSSGGGGSGGGGSGGGGSAQSVLTQPPSVSAAPGQKVTISCSGSSSNIGNNYVSWYQQFPGTAPKLLIYDNNNRPSGVPDRFSGSKSGTSATLGITGLQTGDEADYYCGTWDRSLSVVVFGGGTKVTVLG ... no binding
I008B01 (scFv) scFv: QVQLVQSGAEVMKPGASVKVSCKASGYNFNNYAMQWVRQAPGQRLEWMGWIVPGNGKTKYSQKFQDRVTIARDTSASTVYMELSSLTSEDTAMYYCARATYDPLTGYSFDGFDIWGQGTTVTVSSGGGGSGGGGSGGGGSQSVLTQPASVSGSPGQSITISCTGTSSDVGGYNYVSWYQQHPGKAPKLMIYEGSKRPSGVSNRFSGSKSGNTASLTISGLQAEDEADYYCSSYTTRSTRVFGGGTKLTVLG ... no binding
